# test name: Inhibition of TNF-alpha-FL-Gluc secretion in doxycyclin-induced human Flp-In-T-REx-293 cells measured by Gaussia luciferase reporter gene method
# Type: functional, cell-based
# note: boundary value 20 µM maps to NO; IC50 below it maps to YES

Problem: For the compound CC(C)(C)c1csc(NC(=O)Cc2cn(C3CCc4ccccc43)c3ccc(Cl)cc23)n1 (stereo not given) , is IC50 under 20 µM? NO

And the next one, CC(C)(C)c1csc(NC(=O)c2ccc(-c3ccc(Cl)cc3Cl)s2)n1 ? YES

And the next one, CC(C)(C)c1csc(NC(=O)c2csc3c2CCCC3)n1 ? NO

And the next one, CC(C)c1csc(NC(=O)c2cc3c(s2)CCCC3)n1 ? NO

And the next one, CC(C)(C)Cc1csc(NC(=O)Cc2cn(Cc3ccccc3Cl)c3ccc(Cl)cc23)n1 ? NO

And the next one, CC(C)(C)c1csc(NC(=O)Cc2cn(Cc3ccccc3)c3cc(Cl)ncc23)n1 ? NO

And the next one, CC(C)(C)c1nsc(NC(=O)c2cc3c(s2)CCCC3)n1 ? YES

---

Catalogue of compounds with associated IC50
# test name: Inhibition of PD1ss-Gluc secretion in doxycyclin-induced human Flp-In-T-REx-293 cells measured by Gaussia luciferase reporter gene method
# Type: functional, cell-based
Output spec: scalar in µM, unitless text.

These recorded examples may help you get a feel for the data.
Cc1cccc2c(CC(=O)Nc3nc(C(C)(C)C)cs3)csc12 = 20.4
CC(C)(C)c1csc(NC(=O)Cc2cn(Cc3ccncc3)c3ccc(Cl)cc23)n1 = 2.76

Query: IC50; subject: CC(C)(C)c1csc(NC(=O)Cc2cn(Cc3ccccc3C#N)c3ccc(Cl)cc23)n1 3.65

And the next one, CC(C)(C)c1csc(NC(=O)c2cc3ccccc3n2Cc2ccccc2)n1 ? 8.29

And the next one, Cc1ccc2scc(CC(=O)Nc3nc(C(C)(C)C)cs3)c2c1 ? 8.27

And the next one, CC(c1ccccc1)n1cc(CC(=O)Nc2nc(C(C)(C)C)cs2)c2cc(Cl)ccc21 (centres undefined) ? 2.66

And the next one, CC(C)(C)c1csc(NC(=O)Cc2cn(Cc3ccccc3)c3cc(Cl)ncc23)n1 ? 8.34

And the next one, CC(C)(C)c1csc(NC(=O)Cc2cn(Cc3ccccc3)c3ccc(C#N)cc23)n1 ? 6.06

And the next one, CC(C)(C)c1csc(NC(=O)Cc2cn(Cc3ncco3)c3ccc(Cl)cc23)n1 ? 23.5

---

Catalogue of compounds with associated IC50
# test name: Inhibition of TNF-alpha-FL-Gluc secretion in doxycyclin-induced human Flp-In-T-REx-293 cells measured by Gaussia luciferase reporter gene method
# Assay type: functional, cell-based

CC(C)(C)c1csc(NC(=O)Cc2cn(Cc3cocn3)c3ccc(Cl)cc23)n1 = > 25 µM

Query: IC50; subject: CC(C)(C)c1csc(NC(=O)Cc2cn(Cc3ccc(C#N)cc3)c3ccc(Cl)cc23)n1 23.8 µM

And the next one, CC(C)(C)c1csc(NC(=O)C(Cc2ccccc2)c2cn(Cc3ccccc3)c3ccc(Cl)cc23)n1 (stereo not given) ? > 25 µM

And the next one, COc1ccc2cc(C(=O)Nc3nc(C(C)(C)C)cs3)sc2c1 ? > 80 µM

And the next one, CC(C)(C)c1csc(NC(=O)Cc2cn(Cc3ccccc3Cl)c3ccc(Cl)cc23)n1 ? > 25 µM

And the next one, CC(C)(C)c1csc(NC(=O)c2ccc(-c3ccccc3)s2)n1 ? 4.5 µM

And the next one, Cc1cc(C(=O)Nc2nc(C(C)(C)C)cs2)cs1 ? > 25 µM

And the next one, CC(C)(C)OC(=O)N1CCc2sc(C(=O)Nc3nc(C(C)(C)C)cs3)cc2C1 ? > 50 µM
